test system: K-562; assay: cell viability (% survival relative to DMSO control, bortezomib = 0%); higher = less cytotoxic; settings: 1 nM; 72 h
Measure: cell viability (%)
Answer with a number only, understood to be in %.

Known value: K-562 cell viability of the compound O=C1c2cc([N+](=O)[O-])ccc2-n2c1nc1ccccc1c2=O [GNF-Pf-3777] equals 102

The reported K-562 cell viability of C[C@H](NC(=O)c1sccc1OCc1ccc(Cl)cc1)c1ccccc1 is 96.4

The compound O=c1oc2c(O)c(O)cc3c(=O)oc4c(O)c(O)cc1c4c23 [Benzoaric Acid] , tested on K-562, showed cell viability of 111

K-562 data for O=C(O)C[C@@]1(O)C[C@@H](CCCCCCc2ccc(Cl)cc2Cl)OC1=O ; its cell viability: 103

# lookup: COc1ccc(S(=O)(=O)N2CCN(S(=O)(=O)c3ccc4c(c3)OCCO4)CC2)cc1 [BML283] on K-562, cell viability = 107

Where these numbers come from: the supplement of paper PMC8671470
